MEASURED ATTRIBUTE: melting point

# count of solved cases: 8
CN(C)CCN1CCN(C(=O)c2ccc3[nH]c(-c4ccc(Cl)c5c4C(=O)NC5)cc3c2)CC1 [Compound 112] :: 271 to 272 °C
COCCN(C)Cc1ccc2[nH]c(-c3cc(OC)c(OS(C)(=O)=O)c4c3C(=O)NC4)cc2c1 [Compound 455] :: 197 to 199 °C
COc1cc(-c2cc3cc(CNC4CCCCC4)ccc3[nH]2)c2c(c1OS(C)(=O)=O)CNC2=O [Compound 365] :: 196 to 199 °C
O=C1NCc2c(Cl)ccc(-c3cc4cc(C(=O)N5CCN(CCOCCO)CC5)ccc4[nH]3)c21 [Compound 109] :: 255 °C
O=C1NCc2c(Cl)ccc(-c3cc4cc(C(=O)N5CCN(CCO)CC5)ccc4[nH]3)c21 [Compound 23] :: > 295 °C
COCCNCc1ccc2[nH]c(-c3cc(OC)c(OS(C)(=O)=O)c4c3C(=O)NC4)cc2c1 [Compound 374] :: 188 to 190 °C
COc1cc(-c2cc3cc(CN4CCCC4)ccc3[nH]2)c2c(c1OS(C)(=O)=O)CNC2=O [Compound 366] :: 187 to 189 °C
COc1cc(-c2cc3cc(CN(C)C)ccc3[nH]2)c2c(c1OS(C)(=O)=O)CNC2=O [Compound 362] :: 232 to 234 °C

Exam item: Return melting point (reported value) for this compound: O=C(NCc1ccccc1)c1ccc2[nH]c(-c3ccc(Cl)c4c3C(=O)NC4)cc2c1 [Compound 57]
Marked response: 246 °C

Exam item: Return melting point (reported value) for this compound: O=C1NCc2c(Cl)ccc(-c3cc4cc(C(=O)N5CCN(c6ccccn6)CC5)ccc4[nH]3)c21 [Compound 107]
Marked response: > 295 °C

====

In this section we review reported inhibition at 10 µM values for a set of molecules.
# TESTED TARGET: Flt-3 (Homo sapiens)
# Construct: His tag; purchased Upstate Inc. 14-500
# Sequence (P36888 564-993 limits assumed): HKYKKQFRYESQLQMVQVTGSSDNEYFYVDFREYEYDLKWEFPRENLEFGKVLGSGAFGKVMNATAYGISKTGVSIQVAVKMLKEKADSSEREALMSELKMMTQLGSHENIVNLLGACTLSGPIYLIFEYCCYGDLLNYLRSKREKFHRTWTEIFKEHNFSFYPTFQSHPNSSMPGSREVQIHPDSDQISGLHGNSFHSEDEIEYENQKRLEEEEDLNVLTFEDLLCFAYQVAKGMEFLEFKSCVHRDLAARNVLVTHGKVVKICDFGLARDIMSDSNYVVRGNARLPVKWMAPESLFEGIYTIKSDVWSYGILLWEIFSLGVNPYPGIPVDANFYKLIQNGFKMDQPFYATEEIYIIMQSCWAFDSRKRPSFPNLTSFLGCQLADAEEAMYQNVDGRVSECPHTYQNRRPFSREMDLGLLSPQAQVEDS
# ASSAY SUMMARY: Flt-3 inhibitory activity, time-resolved fluoroimmunoassay
# Type: biochemical
# PROTOCOL CONDITIONS: 10 μmol/L test compound

# count of solved cases: 3
COc1cc(-c2cc3cc(CN(C)C)ccc3[nH]2)c2c(c1OS(C)(=O)=O)CNC2=O [Compound 362] :: ≥ 50%
COCCNCc1ccc2[nH]c(-c3cc(OC)c(OS(C)(=O)=O)c4c3C(=O)NC4)cc2c1 [Compound 374] :: ≥ 50%
COCCN(C)Cc1ccc2[nH]c(-c3cc(OC)c(OS(C)(=O)=O)c4c3C(=O)NC4)cc2c1 [Compound 455] :: ≥ 50%

Below: the item to evaluate.
Exam item: Return inhibition at 10 µM (reported value) for this molecule: COc1cc(-c2cc3cc(CN4CCCC4)ccc3[nH]2)c2c(c1OS(C)(=O)=O)CNC2=O [Compound 366]
Marked response: ≥ 50%
